System: RARg:RXRa (NR concentration 270 nM, RXRa partner concentration 90 nM)
Assay: PBM binding z-score (relative to random genomic background probes); higher = stronger binding; sequences stand for … in GC…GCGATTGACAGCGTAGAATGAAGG

MACROMOLECULE SEQUENCE: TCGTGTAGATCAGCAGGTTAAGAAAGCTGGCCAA
PBM binding z-score: -0.298
//
MACROMOLECULE SEQUENCE: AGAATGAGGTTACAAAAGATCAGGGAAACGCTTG
PBM binding z-score: 1.86
//
MACROMOLECULE SEQUENCE: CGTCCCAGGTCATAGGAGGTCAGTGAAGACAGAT
PBM binding z-score: 5.47
//
MACROMOLECULE SEQUENCE: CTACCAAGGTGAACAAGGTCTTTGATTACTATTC
PBM binding z-score: 0.878
//
MACROMOLECULE SEQUENCE: ATCTCTAGTTAAAGATAGTTCAGTGAATGCAAAT
PBM binding z-score: 0.636
//
MACROMOLECULE SEQUENCE: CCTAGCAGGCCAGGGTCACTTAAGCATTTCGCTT
PBM binding z-score: 2.93
//
MACROMOLECULE SEQUENCE: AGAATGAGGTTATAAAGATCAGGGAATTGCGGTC
PBM binding z-score: 1.15
//
MACROMOLECULE SEQUENCE: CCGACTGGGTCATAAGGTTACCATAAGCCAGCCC
PBM binding z-score: 4.62
//
MACROMOLECULE SEQUENCE: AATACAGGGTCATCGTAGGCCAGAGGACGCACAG
PBM binding z-score: 5.78
//
MACROMOLECULE SEQUENCE: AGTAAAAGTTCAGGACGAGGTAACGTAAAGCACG
PBM binding z-score: 4.29
//
MACROMOLECULE SEQUENCE: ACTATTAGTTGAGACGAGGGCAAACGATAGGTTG
PBM binding z-score: 0.74
//
MACROMOLECULE SEQUENCE: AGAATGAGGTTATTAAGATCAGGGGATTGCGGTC
PBM binding z-score: 1.03

---

Test system: PPARg DBDmut:RXRa IVT, anti-PPARg (DBD mutation: PPARg1 K132A/R137A, NR concentration 270 nM, RXRa partner concentration 90 nM)
Assay: PBM binding z-score (relative to random genomic background probes); higher = stronger binding; sequences stand for … in GC…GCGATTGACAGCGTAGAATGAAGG
Cut-off -0.05 on PBM binding z-score, inclusive. At or above means t; below means f.

MACROMOLECULE SEQUENCE: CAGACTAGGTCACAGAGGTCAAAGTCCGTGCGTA
ASSIGNED CLASS: t
--
MACROMOLECULE SEQUENCE: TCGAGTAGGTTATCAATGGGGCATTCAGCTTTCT
ASSIGNED CLASS: f
--
MACROMOLECULE SEQUENCE: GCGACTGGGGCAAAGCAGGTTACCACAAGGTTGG
ASSIGNED CLASS: f
--
MACROMOLECULE SEQUENCE: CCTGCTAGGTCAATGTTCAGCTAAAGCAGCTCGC
ASSIGNED CLASS: f
--
MACROMOLECULE SEQUENCE: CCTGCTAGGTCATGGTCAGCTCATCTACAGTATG
ASSIGNED CLASS: f
--
MACROMOLECULE SEQUENCE: CTACCAAGGTGAACAAGGTCGATGATTACTATTC
ASSIGNED CLASS: t
--
MACROMOLECULE SEQUENCE: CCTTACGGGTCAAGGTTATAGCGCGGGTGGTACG
ASSIGNED CLASS: f
--
MACROMOLECULE SEQUENCE: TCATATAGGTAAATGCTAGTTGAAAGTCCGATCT
ASSIGNED CLASS: t
--
MACROMOLECULE SEQUENCE: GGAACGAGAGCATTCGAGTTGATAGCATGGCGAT
ASSIGNED CLASS: f
--
MACROMOLECULE SEQUENCE: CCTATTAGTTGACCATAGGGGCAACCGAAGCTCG
ASSIGNED CLASS: t
--
MACROMOLECULE SEQUENCE: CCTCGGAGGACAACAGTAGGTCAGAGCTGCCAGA
ASSIGNED CLASS: f
--
MACROMOLECULE SEQUENCE: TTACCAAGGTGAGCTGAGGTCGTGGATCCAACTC
ASSIGNED CLASS: f
